Data provenance: PubChem BioAssay AID1963857

- Tested on: K24384-001-R-PDC KRAS patient-derived spheroid viability;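 note: spheroids exposed to agents for 7 days before readout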
- assay.text: Anticancer human tumor K24384-001-R-PDC patient-derived pancreatic adenocarcinoma cell line growth inhibition [KRAS2]; active = viability on the fitted dose curve at most 10% of control; inactive = the rest
- experimental.context: second compound 3.16 µM; first compound 10 µM; spheroids with HUVEC and MSC
Answer with one of the outcomes active, inactive

Check out these entries, answers already filled in.
{"columns": ["molecule", "assigned.class"],
 "data": [
  ["Cn1nccc1Nc1nccc(-c2cc3c(s2)C(C)(C)N(CCN2CCOCC2)C3=O)n1 + CC1OCC2(CCN(c3cnc(Sc4ccnc(N)c4Cl)c(N)n3)CC2)C1N", "active"],
  ["CC1(C)CCC(CN2CCN(c3ccc(C(=O)NS(=O)(=O)c4ccc(NCC5CCOCC5)c([N+](=O)[O-])c4)c(Oc4cnc5[nH]ccc5c4)c3)CC2)=C(c2ccc(Cl)cc2)C1 + C=CC(=O)N1CCN(c2nc(=O)n(-c3c(C)ccnc3C(C)C)c3nc(-c4c(O)cccc4F)c(F)cc23)C(C)C1", "inactive"]
]}

Okay, next one:
Dear colleague, could you share the recorded outcome for CC1(C)CCC(CN2CCN(c3ccc(C(=O)NS(=O)(=O)c4ccc(NCC5CCOCC5)c([N+](=O)[O-])c4)c(Oc4cnc5[nH]ccc5c4)c3)CC2)=C(c2ccc(Cl)cc2)C1 + COc1cc2nc(C)nc(NC(C)c3cc(N)cc(C(F)(F)F)c3)c2cc1OC1CCOC1 when you have a moment? inactive
